Test system: Saccharomyces cerevisiae
Test: protein stability index of tFT-peptide fusion (C-terminal peptide) (PSI (0-1 scale)); higher = more stable (slower turnover);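 also: PSI is a weighted mean of sequencing reads over stability bins, variants kept only with over 10 reads, mCherry proximal and sfGFP distal, peptide attached via GGGS linker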
Settings: genetic background: wild type; temperature: 30 C
Class T: protein stability index at least 0.7. Class F: protein stability index below 0.7.

Study these solved cases before continuing.
- RESIDUE SEQUENCE: "LFYVNIPTQFVR"
  CAT: "F"
- RESIDUE SEQUENCE: "PPPSSSLAAPPT"
  CAT: "F"
- RESIDUE SEQUENCE: "KKTKKGINVEER"
  CAT: "F"
- RESIDUE SEQUENCE: "VLEAIIFRKHDN"
  CAT: "T"
- RESIDUE SEQUENCE: "FVVSCLSWVFLF"
  CAT: "F"

// inclusive: protein stability index at least 0.7? input: GEIMGEVARREK
F

// inclusive: protein stability index at least 0.7? input: CGWVRRARVKMM
F

// inclusive: protein stability index at least 0.7? input: NPWTHVPGRQNH
T

// inclusive: protein stability index at least 0.7? input: SPRFVPPPAILR
F

---

System: Saccharomyces cerevisiae
Assay: protein stability index of tFT-peptide fusion (C-terminal peptide) (PSI (0-1 scale)); higher = more stable (slower turnover)
Details: genetic background: cdc34-1; temperature: 37 C
Documented protein stability index across a set of sequences
Please reply with the value in numeric form only.

Past entries and their recorded results:
- RESIDUE SEQUENCE: "GCYWPKTLGILC"
  protein stability index: 0.546
- RESIDUE SEQUENCE: "SAVLFLLFVYVR"
  protein stability index: 0.0536
- RESIDUE SEQUENCE: "WCAVRVWFGAAL"
  protein stability index: 0.648
- RESIDUE SEQUENCE: "CVFCRVAVGVDG"
  protein stability index: 0.539
- RESIDUE SEQUENCE: "IGSARIKLLCYH"
  protein stability index: 0.602
- RESIDUE SEQUENCE: "VTFCFLFVWFLV"
  protein stability index: 0.269
- RESIDUE SEQUENCE: "FCIIVFYIFVGI"
  protein stability index: 0.451
- RESIDUE SEQUENCE: "VLGLYSLLLSFF"
  protein stability index: 0.567
- RESIDUE SEQUENCE: "WVYVFVSLFFVV"
  protein stability index: 0.185
- RESIDUE SEQUENCE: "YYFCMYFKVTLC"
  protein stability index: 0.0445

Name the recorded protein stability index of the item WCAMITVFCGSG in your answer.
0.268

Name the recorded protein stability index of the item CRCLFVVKNWLS in your answer.
0.62

---

Test system: Saccharomyces cerevisiae
Assay: protein stability index of tFT-peptide fusion (C-terminal peptide) (PSI (0-1 scale)); higher = more stable (slower turnover)
Conditions: genetic background: cdc34-1; temperature: 37 C
Documented protein stability index across a set of sequences
Please reply with the value in numeric form only.

Past entries and their recorded results:
- RESIDUE SEQUENCE: "GLYMCSVGCWFR"
  protein stability index: 0.104
- RESIDUE SEQUENCE: "WLGLFAFRRCLV"
  protein stability index: 0.544
- RESIDUE SEQUENCE: "LSGDIPWSFVPV"
  protein stability index: 0.743
- RESIDUE SEQUENCE: "GVVCWLVVTGFL"
  protein stability index: 0.387
- RESIDUE SEQUENCE: "PPRSRPLLRPLP"
  protein stability index: 0.699

Report the value of protein stability index obtained on Saccharomyces cerevisiae for FVVWKDVLVMVR .
0.132

Report the value of protein stability index obtained on Saccharomyces cerevisiae for CALFLLSSPSPT .
0.713

Report the value of protein stability index obtained on Saccharomyces cerevisiae for VFFLVHFHLPMF .
0.531
